System: HL-60
Experiment: NCI tumour cell line growth inhibition, 48 h
Calls of active or inactive are those of the source. Rule as the data show it: active = GI50 up to about 1.1 µM and inactive = higher.
Would you mind answering with one of these outcomes? active, inactive

Record lookup: outcome of this test for N#Cc1c(=O)c2ccccc2n2ccccc12 ?
inactive

Assay result, entry C=C(Cl)C(Cl)(CBr)CCCC(C)C (centres undefined) — outcome?
inactive

Given O=C(O)[C@@H]1OCCOCCO[C@@H](C(=O)O)[C@H](C(=O)O)OCCOCCO[C@H]1C(=O)O , state the outcome it received in this test.
inactive

Which outcome was assigned to CC1(C)C2CCC1(C)[C@H](n1c(=O)n([C@@H]3CC4CCC3(C)C4(C)C)c(=O)n([C@@H]3CC4CCC3(C)C4(C)C)c1=O)C2 in this test?
inactive

Look up the recorded call for CC(C)(C)C1CCC2c3c([nH]c4ccccc34)C3C(=O)N(c4cc(Cl)ccc4Cl)C(=O)C3C2C1 (centres undefined) in this test.
inactive

For this molecule, state the assay outcome: N#Cc1c(-c2ccccc2)cc(-c2ccc(N)cc2)[nH]c1=O
inactive

Could you check what this test reported for CC(C)(C)C(=O)C1CC(=O)c2ccccc2C1=O (centres undefined) ?
inactive

Hi, do you know how Cc1ccc(/N=C2/SC(c3ccc(C)cc3)(c3ccc(C)cc3)c3ccccc32)cc1 came out in this test?
inactive

Recorded test outcome, item CC1(C)COC(c2cccnc2/C=N/O)=N1
inactive

Please indicate how the test categorized BrCCCCCOc1ccc(-c2c3ccccc3c(-c3ccc(OCCCCCBr)cc3)c3ccccc23)cc1 .
inactive

Call for entry COc1cc2c(cc1OC)[C@]1(O)C(=O)c3ccc4c(c3O[C@@H]1CO2)C[C@H](C(C)(C)O)O4 :
inactive

Record request — test call for CN1CC2CN(Cc3ccccc3)CCN2c2cccnc21 (centres undefined)
inactive

Recorded test call requested for O=C(/C=C/c1ccc(-c2ccccc2)cc1)c1ccccc1
inactive

GET /call?item= C/C(=N\NC(=S)NC(CCC(=O)O)C(=O)O)c1cnccn1 (centres undefined) returns the recorded outcome of this test.
inactive

Name the outcome recorded for CCOC(=O)CSc1nc(-c2ccc(Cl)cc2)c(C#N)c(=O)[nH]1 in the assay.
inactive

Recorded call for CCOC(=O)C1=C(C)N(c2ccc(OC)cc2)C2(O)C=CC(O)=C3C(=O)c4ccccc4C(=O)C312 (centres undefined) ?
inactive

GET /call?item= N#CC(C#N)c1ccc(C(=O)N2CCC[C@H]2CO)cc1 returns the recorded outcome of this test.
inactive

Which outcome did this test record for the molecule c1ccc2c(c1)nc1n2CCCn2ccnc2-1 ?
active

In this assay, the call recorded for COC(=O)c1ccc2c(c1)CC1(C2)Cc2cc3c(c(C(=O)OC)c2C1)CCCC3 (centres undefined) was what?
inactive

----------
Tested on: HL-60
Assay: NCI tumour cell line growth inhibition, 48 h
Calls of active or inactive are those of the source. Cut-off read from the data, not from the text of the source: active = GI50 up to about 1.1 µM and inactive = higher. Where a SMILES comes first, the peptide text is derived from it. [ ]: non-standard residue; d: D form. The star is where a group is joined. ξ: configuration not given here. ξPhe(4-NO2) = NC(Cc1ccc([N+](=O)[O-])cc1)C(=O)O; Boc = CC(C)(C)OC(=O)*; OBn = c1ccc(CO*)cc1
So I've got a bunch of molecules here, and I need their GI50 values.

I'd like to know its GI50. The molecule in question is COc1cc(-c2c(C)c(C)nc(OC)c2C#N)cc(OC)c1OC
24.4 µM (inactive)

Need GI50, item NC(=S)NS(=O)(=O)c1ccc(Cl)cc1
> 100 µM (inactive)

Can you look up the measured GI50 of CC(C)(C)OC(=O)NC(Cc1ccc([N+](=O)[O-])cc1)C(=O)NCC(=O)OCc1ccccc1 (stereo not drawn) (Boc-[ξPhe(4-NO2)]-Gly-OBn) for me?
36.1 µM (inactive)

Given COc1cc2c(cc1OCCCOS(C)(=O)=O)N=C[C@@H]1CCCN1C2=O , state its recorded GI50.
> 100 µM (inactive)

Recorded GI50 for Cc1cc(N(CCOS(C)(=O)=O)CCOS(C)(=O)=O)ccc1C=O , please?
2.98 µM (inactive)

Please report the recorded GI50 for [N-]=[N+]=NC1CC(n2ccc(N)nc2=O)OC1COP(=O)(O)OP(=O)(O)OP(=O)(O)O (stereo not drawn) .
> 100 µM (inactive)

Give its GI50 value. Item: CC(C)=CCN(N=O)c1ncnc2[nH]cnc12
> 100 µM (inactive)

Requested read-out: GI50. Entry: C/C(=N\NC(=S)NC(C)(C)C)c1nc2cccnc2[nH]1
1.2 µM (inactive)
